The reader will find reported pIC50 values listed item by item below.
- System: THP-1
- METHOD: Cytotoxicity in human THP-1 cells assessed as reduction in cell viability incubated for 72 hrs by MTT assay
- Type: cell-based
- CONDITION SET: THP-1, 72 h
Scale: negative log10 of molar concentration, which is what pIC50 denotes.

{"STRUCTURE": "CS(=O)(=O)N1CCCc2ccc(N(S(=O)(=O)c3ccc(Br)cc3)S(=O)(=O)c3ccc(Br)cc3)cc21", "pIC50": 4.18}

# get_value(readout='pIC50', item= `CC(C)(O)c1coc(S(=O)(=O)NC(=O)Nc2c3c(cc4c2CCC4)CCC3)c1` ) 4.01

// pIC50 lookup, key: `CS(=O)(=O)N1CCCc2ccc(N(S(=O)(=O)c3ccc(C#N)cc3)S(=O)(=O)c3ccc(C#N)cc3)cc21` 4.44

For the molecule shown here, `COc1ccc(S(=O)(=O)N(c2ccc3c(c2)N(S(C)(=O)=O)CCC3)S(=O)(=O)c2ccc(OC)cc2)cc1` , give the reported pIC50. 4.04

// returns reported pIC50 for input `CS(=O)(=O)N1CCCc2ccc(N(S(=O)(=O)c3cccc(F)c3)S(=O)(=O)c3cccc(F)c3)cc21` 4.14

Reported pIC50, molecule `Cc1ccc(S(=O)(=O)N(c2ccc3c(c2)N(S(C)(=O)=O)CCC3)S(=O)(=O)c2ccc(C)cc2)cc1` : ____ 4.11

Can you share its pIC50? I mean this molecule: `CCCCS(=O)(=O)N(c1ccc2c(c1)N(S(C)(=O)=O)CCC2)S(=O)(=O)CCCC` 4.02

Endpoint output: pIC50 of `CS(=O)(=O)N1CCCc2ccc(N(S(=O)(=O)c3ccc(C(F)(F)F)cc3)S(=O)(=O)c3ccc(C(F)(F)F)cc3)cc21` . Value? 5.08

Fill blank: measured pIC50 of the molecule `CS(=O)(=O)N1CCCc2ccc(N(S(=O)(=O)c3ccc4ccccc4c3)S(=O)(=O)c3ccc4ccccc4c3)cc21` is ____. 4.01

Just for reference, ChEMBL document CHEMBL4765468 is where these values come from.
